Target: CDK2/A (Homo sapiens, UniProt P24941)
Construct: purchased
Test: Inhibitory activity to CDK2 (FRET)
Format: biochemical
Conditions: 1 × 10^−6 mol/L
CDK2 inhibition % (1 × 10^−6 mol/L) values for the compounds below.
Hi! Could you send only the number? It should be in %, unit omitted.

# count of solved cases: 3
{"smiles-data": "O=C(Nc1ccc(CN2CCOCC2)cc1)c1n[nH]cc1Nc1ncnc2[nH]ccc12", "measured-result": 66.39}
{"smiles-data": "Cc1cc2c(Nc3c[nH]nc3C(=O)Nc3ccc(CN4CCOCC4)cc3)nccc2s1", "measured-result": 76.91}
{"smiles-data": "Cc1cc2ncnc(Nc3c[nH]nc3C(=O)Nc3ccc(CN4CCN(C)CC4)cc3)c2[nH]1", "measured-result": 65.01}

Please find the next compound below.
Request the reported CDK2 inhibition % (1 × 10^−6 mol/L) associated with CN1CCN(Cc2ccc(NC(=O)c3n[nH]cc3Nc3nccc4cc[nH]c34)cc2)CC1
76.09
